Hello, the source for this data is the supplement of paper PMC12764529, in case you need it.

# ASSAY DETAILS: folding stability dG unfold (combined trypsin and chymotrypsin); higher = more stable
Reported folding stability dG unfold by item:
Write the answer as a number in kcal/mol, unit excluded.

Study these solved cases before continuing.
MONOMER SEQUENCE | folding stability dG unfold [kcal/mol]
SAGGVIMIPADEILDMIEQNPDEPKTIFARPNNRMVMFTLKIDPDKPDNIEIDNVWRYDPNGKGEHLPSAGG [r13_481_TrROS] | -0.365
SAGGSAGGSAGSSTSTSSDGVLTTYFPDGTVTSTETKPDPSTGTVLAVSTTTTPLPPDTLSAGGSAGGSAGG [r11_497_JUSTAS] | 1.39

Request: Return reported folding stability dG unfold; argument: SAGGSAGGSAGTITINGKPITIEKLDNGYYKVKVNGKWYEIKPGEKIELPKGATVSIEKVSAGGSAGGSAGG [r11_147_TrROS_Hall]
Result: 2.27

---

# ASSAY DETAILS: folding stability dG unfold (combined trypsin and chymotrypsin); higher = more stable
Reported folding stability dG unfold by item:

Study these solved cases before continuing.
MONOMER SEQUENCE | folding stability dG unfold
SKITITIEEEEVEVNGKKYKVFKVTATVTVTEYKFKDGKLVEKKTKTKTITVRIVLDKNGKIVKIEPLPDSA [r9_829_TrROS_Hall] | > 6 kcal/mol
SAGGSAGGSAGGIYIPLEDLEKNGLGFEELVEKLGVDVEIEVLETEPGKPVAKIRPKLGSAGGSAGGSAGGS [r10_855_TrMRF] | 0.435 kcal/mol
SAGGSMIPLDNIDTIEIYENPKEGKYEAKIYFPSNGKVYVFPEGLLPEIIESTPKIKEIKVIPVPESAGGSA [r2_159_TrMRF] | -0.0295 kcal/mol
SAGMPLYRIRVHPDIPDRIEITEVDAEDLPPGAVLKIRFRETGETVEVPLSDLDELLALPGIEEVELVSAGG [r19_302_TrROS_Hall] | 0.841 kcal/mol
SAGGSAGGSAGLPGAEKARKPKPKVKVKVTLTVLPDGTLVLRVTFEDGTTKTITLKLHPDLLSAGGSAGGSA [r18_192_TrMRF] | 3.08 kcal/mol

Request: Return reported folding stability dG unfold; argument: SAGGSAGGSMSKPVKITTTRDPNSNVITIQVESEEDVIEFAKKKGINIKIEPTSENTYKLTLESAGGSAGGS [r12_810_JUSTAS]
Result: 0.113 kcal/mol

Request: Another sequence: SAGGSAGGSALEIPFPIKDVKWERNPDGSRTRTFYLKNGWRASLIFNPKNGQMQIDIEPLDSAGGSAGGSAG [r3_438_TrROS]
Result: 1.81 kcal/mol

---

Reported folding stability dG unfold by item:
# ASSAY DETAILS: folding stability dG unfold from trypsin proteolysis; higher = more stable
Write the answer as a number in kcal/mol, unit excluded.

Study these solved cases before continuing.
MONOMER SEQUENCE | VALUE
SAGGSAWIWITYQFPPGGTLEQAKEQIVNYLQRLFGWKIEIPDIEVEREGNNWTVTFPIKIEPLPGSAGGSA [r15_105_TrROS] | 3.7
SAGGSAGGSNELLKKLGLKPDQTILVLARPGEIEKLRKEKPIKRIEVTPLPDDLYLYRIEVEGSAGGSAGGS [r12_750_TrMRF] | -0.0878
SAGDFLKNLPPGIKRWRPVASDPDGHFVFVFKYKTPDRPRYMVIQFPPNGRIQDIHIFPPDEADKAVNKSAG [r5_73_TrROS] | 0.72
SAGGSPLVLTSEVEKKFENSPDKTVEKYKIKVTVYDPKTGKKLKEIELEKTVEKGGNEKIEEPIILSAGGSA [r2_271_JUSTAS] | 0.146
SAGGSAGGKEFKIVKVEIEEREDGRLKIHITVEPGATPEEVKKALEELGFEVEEVEVVEVEEEESAGGSAGG [r6_543_TrROS_Hall] | 1.93

Request: Return reported folding stability dG unfold; argument: SAGGMAVPVKVRDPVNGNWKTLDNIESIDEVVEVDPTDGSRSYFVKLKGSGKWYVVDDPEAVEAAKGSAGGS [r8_206_TrMRF]
Result: 1.17

Request: Another sequence: SAMKKTETRVLEIRIGDYLAKIFLTEYEDGRVETLIEVYGPDPAVVEEVKDFLEKLDPDLEITEIVVLDSAG [r14_611_TrMRF]
Result: 3.13
